FYI, the data here is from paper PMC2715132.

- Tested on: T. gondii RH M190D4
- ASSAY DETAILS: T. gondii growth in HFF monolayer, [3H]uracil incorporation
- Assay type: cell-based, Toxoplasma gondii
- CONDITION SET: Toxoplasma gondii, read-out: EC50 (nM ± SD)
METRIC: EC50 (nM)
One number for each entry, in nM.

Need EC50 of CCc1nc(N)nc(N)c1-c1ccc(Cl)cc1 [Pyrimethamine, pyrimethamine] , thanks.
300
